assay: Leishmania major promastigote growth inhibition, primary screen (AID 1063); conditions: Leishmania major promastigotes, resazurin fluorescence viability; at 10 µM;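 also: promastigotes grown with compound for 44 hours at 28 °C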
The whole screen tested about 200,000 compounds, of which about 18,000 (9%) were called active. Rule as the data show it: active = inhibition above about 50%; inactive = the rest. Shown is part of a subset that was picked to be rich in actives.
Classes used: active, inactive

- compound: "Cc1ccc(OCCCn2c(=O)oc3ccccc32)cc1"
  assigned_label: "inactive"
- compound: "c1cncc(-c2nnc3n2C2(CCCCC2)Cc2ccccc2-3)c1"
  assigned_label: "inactive"
- compound: "CC(=O)Nc1cccc(-c2nc3ccccc3s2)c1C"
  assigned_label: "inactive"
- compound: "CS(=O)(=O)N(CC(=O)N1CCCC1)Cc1ccccc1"
  assigned_label: "inactive"
- compound: "COC(=O)Cc1ccc(Oc2ncc(C(F)(F)F)cc2Cl)cc1"
  assigned_label: "inactive"
- compound: "CCOc1cccc2c1OC1(CCCCC1)N1N=C(c3cccnc3)CC21 (stereo not given)"
  assigned_label: "active"
- compound: "COc1ccc(C2=NN(c3nc4ccccc4s3)C(=O)C2)cc1"
  assigned_label: "inactive"
- compound: "CCC(C)(C)n1nnnc1C(c1ccccc1OC)N1CCSCC1 (stereo not given)"
  assigned_label: "inactive"
- compound: "COc1ccc(/C=N/NC(=O)Nc2ccc3nsnc3c2)c(OC)c1"
  assigned_label: "inactive"
- compound: "CNC(=S)N/N=C/c1ccc(OCc2ccccc2)c(Br)c1"
  assigned_label: "inactive"
- compound: "COCCn1c(N)c(N(Cc2ccccc2)C(=O)C2CCCCC2)c(=O)[nH]c1=O"
  assigned_label: "inactive"
- compound: "Cc1ccc(Cc2nc(-c3cccc(C)c3)no2)cc1"
  assigned_label: "inactive"
- compound: "COc1ccc(C)cc1NC(=O)NCc1ccccn1"
  assigned_label: "inactive"
- compound: "COc1cccc(NC(=O)c2nn(-c3ccc(OC)cc3OC)c(=O)c3ccccc23)c1"
  assigned_label: "inactive"
- compound: "O=C(NC1(C(F)(F)F)NC(=O)N(C2CCCCC2)C1=O)c1ccco1 (stereo not given)"
  assigned_label: "inactive"
- compound: "FC(F)(F)c1cccc(Cc2noc(CN3CCC(N4CCCCC4)CC3)n2)c1"
  assigned_label: "active"
- compound: "CN1CCN(NC(=O)c2ccc(S(=O)(=O)N3CCCCCC3)cc2)CC1"
  assigned_label: "inactive"
- compound: "Cc1ccnc(NC(=O)c2ccco2)n1"
  assigned_label: "inactive"
- compound: "CNC(=S)N/N=C/c1cn(Cc2ccc(C)cc2)c2ccccc12"
  assigned_label: "active"
- compound: "O=C(Cn1cc(/C=N/NC(=O)c2cccc(C(F)(F)F)c2)c2ccccc21)Nc1ccc(F)cc1"
  assigned_label: "inactive"
- compound: "Cc1cc(NC(=O)CSCc2ccccc2C)no1"
  assigned_label: "inactive"
- compound: "CN(C)c1nc(N)nc(Cn2nnc(-c3ccc(C(F)(F)F)cc3)n2)n1"
  assigned_label: "inactive"
- compound: "CCOC(=O)N1CCN(Cc2nc(Cc3cccc(C(F)(F)F)c3)no2)CC1"
  assigned_label: "inactive"
- compound: "O=C(Nc1cc(Cl)cc(Cl)c1)C(NCCCO)c1ccccc1 (stereo not given)"
  assigned_label: "inactive"
- compound: "O=c1c2sccc2nc(SCc2cc(=O)n3ccccc3n2)n1-c1ccc(Br)cc1"
  assigned_label: "inactive"
- compound: "Fc1ccc(Cn2nnnc2C(c2cccs2)N2CCCCCC2)cc1 (stereo not given)"
  assigned_label: "inactive"
- compound: "Cc1cc(C)cc(OCC(=O)NCc2cc(C)nc3ccccc23)c1"
  assigned_label: "inactive"
- compound: "COc1ccc(CCNC(=O)CSc2nc3[nH]ncc3c(=O)n2-c2cccc(C(F)(F)F)c2)cc1OC"
  assigned_label: "inactive"
- compound: "CCOC(=O)c1cnn(Cc2ccccc2Cl)c1N"
  assigned_label: "inactive"
- compound: "COc1ccc2ccccc2c1CNc1nnnn1C"
  assigned_label: "inactive"
- compound: "CCO[C@H]1OC(C(=O)N2CCN(Cc3ccccc3)CC2)=C[C@@H](c2cn(C(C)=O)c3ccccc23)[C@@H]1CCCO"
  assigned_label: "active"
- compound: "CCc1nnc(NC(=O)CSc2nc(SC)ns2)s1"
  assigned_label: "inactive"
- compound: "CN1CCN(C(=O)C2=C[C@H](c3ccc4c(c3)OCO4)C[C@H](OCc3ccc(CO)cc3)O2)CC1"
  assigned_label: "inactive"
- compound: "Cc1cc(=O)oc(C)c1C(=O)NCCN(C)Cc1ccccc1"
  assigned_label: "inactive"
- compound: "CC(NC(=O)Nc1ccc2c(c1)OCO2)c1ccncc1 (stereo not given)"
  assigned_label: "inactive"
- compound: "Cc1cccc2nc(CSc3nc4[nH]ncc4c(=O)n3-c3cccc(Cl)c3)cc(=O)n12"
  assigned_label: "active"
- compound: "C[C@H](NC(=O)c1ccccc1Cl)C(=O)OCCOc1cccc(Cl)c1"
  assigned_label: "inactive"
- compound: "COC(=O)N/N=C/c1cn(CCCOc2ccc(C)cc2)c2ccccc12"
  assigned_label: "active"
- compound: "CC(NC(=S)Nc1ccc(S(N)(=O)=O)cc1)c1ccc2c(c1)OCO2 (stereo not given)"
  assigned_label: "active"
- compound: "Cc1cccc(N2CCN(C(=O)c3cnn4c(C(F)F)cc(-c5ccccc5)nc34)CC2)c1C"
  assigned_label: "active"
- compound: "CC(C)(C)C(=O)NC(NC(=S)Nc1ccc(S(N)(=O)=O)cc1)C(Cl)(Cl)Cl (stereo not given)"
  assigned_label: "inactive"
- compound: "Fc1cccc(Cc2noc(CN3CCN(c4cnccn4)CC3)n2)c1"
  assigned_label: "inactive"
- compound: "Cc1ccc(CN(C)CC(=O)Nc2cccc([N+](=O)[O-])c2)o1"
  assigned_label: "inactive"
- compound: "CCOC(=O)N/N=C/c1cn(Cc2ccccc2Cl)c2ccccc12"
  assigned_label: "active"
- compound: "COc1cc(OC)cc(C(=O)NCC(=O)OCc2csc(-c3ccccc3)n2)c1"
  assigned_label: "inactive"
